Biological target: ERβ (Homo sapiens)
Assay: Phage ELISA / fingerprint on ER immobilized on biotinylated ERE (Examples 2.3-2.5)
Assay type: binding
Set-up: purchased PanVera Corporation, Madison, WI; key: semiquantitative scale of 0 to 7+; 1+: semiquantitative scale of 0 to 7+; 2+: semiquantitative scale of 0 to 7+; 3+: semiquantitative scale of 0 to 7+; 4+: semiquantitative scale of 0 to 7+; 5+: semiquantitative scale of 0 to 7+; 6+: semiquantitative scale of 0 to 7+; semiquantitative scale of 0 to 7+
Conditions: ERβ and tamoxifen (4-OH tamoxifen, 1 µM)
Below, each of the sequences is paired with its reported binding activity, ERβ and tamoxifen value.

>  <RECORD SEQUENCE>
SSGPFYVGGMLWPADCLSR [Peptide 10t-β]

>  <binding activity, ERβ and tamoxifen>
7+

$$$$
>  <RECORD SEQUENCE>
SSLQAGSWLMHYLRGGDSR [Peptide 23E-β]

>  <binding activity, ERβ and tamoxifen>
2+

$$$$
>  <RECORD SEQUENCE>
SRPGCLRGVWCLADTPPSR [Peptide 20t-β]

>  <binding activity, ERβ and tamoxifen>
7+

$$$$
>  <RECORD SEQUENCE>
SSTRLMCWLGSADTSHCSR [Peptide 28E-β]

>  <binding activity, ERβ and tamoxifen>
2+

$$$$

Now take the following sequence into account.
Lab note: SSRTPILFSLLETSR [Peptide 11E-β] gave binding activity, ERβ and tamoxifen of 4+

* * *

Molecular target: ERβ (Homo sapiens)
Assay: Phage ELISA / fingerprint on ER immobilized on biotinylated ERE (Examples 2.3-2.5)
Type: binding
Set-up: purchased PanVera Corporation, Madison, WI; key: semiquantitative scale of 0 to 7+; 1+: semiquantitative scale of 0 to 7+; 2+: semiquantitative scale of 0 to 7+; 3+: semiquantitative scale of 0 to 7+; 4+: semiquantitative scale of 0 to 7+; 5+: semiquantitative scale of 0 to 7+; 6+: semiquantitative scale of 0 to 7+; semiquantitative scale of 0 to 7+
Conditions: ERβ and tamoxifen (4-OH tamoxifen, 1 µM)
Reported binding activity, ERβ and tamoxifen is given for each of the following sequences.

Worked set:
>  <RECORD SEQUENCE>
SRLHCLLDSSYCSSR [Peptide 1b-β]

>  <TGT>
ERβ (Homo sapiens)

>  <binding activity, ERβ and tamoxifen>
2+

$$$$
>  <RECORD SEQUENCE>
SSQEEWLLPWRLASR [Peptide 8t-β]

>  <TGT>
ERβ (Homo sapiens)

>  <binding activity, ERβ and tamoxifen>
5+

$$$$
>  <RECORD SEQUENCE>
SSQWQAPWWYIDASR [Peptide 32E-β]

>  <TGT>
ERβ (Homo sapiens)

>  <binding activity, ERβ and tamoxifen>
2+

$$$$
>  <RECORD SEQUENCE>
SRHGILWDLLQGDSR [Peptide 2E-β]

>  <TGT>
ERβ (Homo sapiens)

>  <binding activity, ERβ and tamoxifen>
2+

$$$$

binding activity, ERβ and tamoxifen measured on SSPTGHRLLESLLLNSNSR [Peptide 8E-β] = 1+

Lab note: measured binding activity, ERβ and tamoxifen of SRNECIGPWCLTISR [Peptide 13t-β] was 7+

Looking up SSAGLLEDMLRSRSR [Peptide 21E-β] , I see its binding activity, ERβ and tamoxifen listed as 1+

* * *

Molecular target: UniProt Q92731
Test: Time resolved fluorescence (TRF) binding of europium-streptavidin peptide conjugates in the presence of modulators
Parameters: purchased PanVera Corporation, Madison, WI
Settings: peptide probe βIII, ERβ
ATTRIBUTE MEASURED: EC50 (nM)
Write it as a number; the unit nM goes unstated.

Note to self: EC50 recorded for "CCN(CC)CCOc1ccc(C(=C(Cl)c2ccccc2)c2ccccc2)cc1" was 123

* * *

Molecular target: ERβ (Homo sapiens, UniProt Q92731)
Sequence (Q92731 whole entry): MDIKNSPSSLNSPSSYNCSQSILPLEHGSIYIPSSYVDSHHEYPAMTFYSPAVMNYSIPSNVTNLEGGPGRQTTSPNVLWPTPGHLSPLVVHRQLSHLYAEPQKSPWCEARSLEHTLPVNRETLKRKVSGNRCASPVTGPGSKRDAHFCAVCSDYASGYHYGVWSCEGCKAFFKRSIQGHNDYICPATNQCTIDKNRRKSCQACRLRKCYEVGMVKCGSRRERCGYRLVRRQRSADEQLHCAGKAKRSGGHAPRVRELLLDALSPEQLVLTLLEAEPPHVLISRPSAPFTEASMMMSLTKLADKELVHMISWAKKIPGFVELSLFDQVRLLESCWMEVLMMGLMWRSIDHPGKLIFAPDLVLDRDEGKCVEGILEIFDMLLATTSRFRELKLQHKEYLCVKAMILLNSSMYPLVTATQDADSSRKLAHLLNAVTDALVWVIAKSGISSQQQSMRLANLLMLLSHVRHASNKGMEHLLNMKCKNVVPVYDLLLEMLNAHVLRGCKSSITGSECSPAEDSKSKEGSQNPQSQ
Test: Phage ELISA / fingerprint on ER immobilized on biotinylated ERE (Examples 2.3-2.5)
Type: binding
Design: purchased PanVera Corporation, Madison, WI; key: semiquantitative scale of 0 to 7+; 1+: semiquantitative scale of 0 to 7+; 2+: semiquantitative scale of 0 to 7+; 3+: semiquantitative scale of 0 to 7+; 4+: semiquantitative scale of 0 to 7+; 5+: semiquantitative scale of 0 to 7+; 6+: semiquantitative scale of 0 to 7+; semiquantitative scale of 0 to 7+
Settings: ERβ and buffer
Known binding activity, ERβ and buffer of a selection of sequences

Example entries and their recorded answers appear below.
>  <RECORD SEQUENCE>
SSKLYCLLDESYCSR [Peptide 21b-β]

>  <binding activity, ERβ and buffer>
7+

$$$$
>  <RECORD SEQUENCE>
SSLKCLLQSSPQKQPFCSR [Peptide 19E-β]

>  <binding activity, ERβ and buffer>
4+

$$$$
>  <RECORD SEQUENCE>
SSRCSSLLCEMLIQTKESR [Peptide 22E-β]

>  <binding activity, ERβ and buffer>
5+

$$$$
>  <RECORD SEQUENCE>
SRSPILWHLLQDGSR [Peptide 10E-β]

>  <binding activity, ERβ and buffer>
4+

$$$$
>  <RECORD SEQUENCE>
SRPGCLRGVWCLADTPPSR [Peptide 20t-β]

>  <binding activity, ERβ and buffer>
7+

$$$$

Consider SSIPPRSWWLSQLSR [Peptide 19b-β] . Its measured binding activity, ERβ and buffer is 7+

Lookup result for SSRPSFTIPWWFDDPSRSR [Peptide 33E-β] ; measured binding activity, ERβ and buffer: 5+

// binding activity, ERβ and buffer lookup, sequence = SSVFTIMDGKVALSR [Peptide 1t-β] , result: 3+

Memo: SSSGPWRWGLSIESR [Peptide 17b-β] , reported binding activity, ERβ and buffer: 5+

Just so you know, measured binding activity, ERβ and buffer for SRLPPSVFSMCGSEVCLSR [Peptide 9t-β] came out at 3+

Reported binding activity, ERβ and buffer ( SSWPGAEWFKEQLSR [Peptide 20b-β] ) = 7+

Noted for SSRGLLWDLLTKDSR [Peptide 1E-β] : its binding activity, ERβ and buffer reads 5+

Note to self: binding activity, ERβ and buffer recorded for SRLHDLLLRDESPSR [Peptide 3E-β] was 3+

SRNECIGPWCLTISR [Peptide 13t-β] has a reported binding activity, ERβ and buffer of 7+

SSQVWPGPWRLVESR [Peptide 14b-β] yielded binding activity, ERβ and buffer of 7+

Per the record, SSQWQAPWWYIDASR [Peptide 32E-β] has binding activity, ERβ and buffer of 5+

Looking up SRHGILWDLLQGDSR [Peptide 2E-β] , I found its binding activity, ERβ and buffer recorded as 4+

Short answer for SSVASREWWVRELSR [Peptide 15t-β] : binding activity, ERβ and buffer was 6+

Notebook: SSGPFYVGGMLWPADCLSR [Peptide 10t-β] , binding activity, ERβ and buffer read as 4+

So for HSYSSHPLLLSYLWGG [Peptide 23b-β] , the logged binding activity, ERβ and buffer turned out to be 7+

The value of binding activity, ERβ and buffer measured for the sequence SRMFQVCGDEVCLRSR [Peptide 16t-β] turned out to be 7+

For this sequence ( SSSLGPWRLSELESR [Peptide 16b-β] ), measured binding activity, ERβ and buffer is 7+

For record SSTTWRCPEWYCGSR [Peptide 30E-β] the listed binding activity, ERβ and buffer is 6+

The sequence identified as HSWLGPWRLSSIDLGG [Peptide 24b-β] registered its binding activity, ERβ and buffer at 7+

* * *

Molecular target: estrogen receptor α (ERα) (Homo sapiens, UniProt P03372)
Construct: The full length estrogen receptor was subcloned in frame into the EcoRI and XhoI sites of pJG4-5; expressed in transfected cells; host or cells: Saccharomyces cerevisiae EGY48
Sequence (P03372 1-595): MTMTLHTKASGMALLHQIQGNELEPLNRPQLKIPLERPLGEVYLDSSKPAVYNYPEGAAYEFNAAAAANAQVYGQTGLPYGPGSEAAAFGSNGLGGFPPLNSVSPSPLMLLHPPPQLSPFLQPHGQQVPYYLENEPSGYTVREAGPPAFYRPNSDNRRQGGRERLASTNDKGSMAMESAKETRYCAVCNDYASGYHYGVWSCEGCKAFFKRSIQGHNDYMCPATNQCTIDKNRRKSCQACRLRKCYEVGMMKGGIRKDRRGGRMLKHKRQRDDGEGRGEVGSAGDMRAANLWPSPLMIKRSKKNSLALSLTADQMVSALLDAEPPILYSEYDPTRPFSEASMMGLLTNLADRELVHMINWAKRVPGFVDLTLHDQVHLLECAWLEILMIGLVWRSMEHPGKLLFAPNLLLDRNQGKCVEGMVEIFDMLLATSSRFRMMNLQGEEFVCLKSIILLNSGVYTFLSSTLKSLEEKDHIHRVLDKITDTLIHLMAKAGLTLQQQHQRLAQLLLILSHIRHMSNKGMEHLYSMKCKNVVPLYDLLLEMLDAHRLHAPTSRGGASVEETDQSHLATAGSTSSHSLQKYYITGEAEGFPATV
Experiment: LexA yeast two hybrid, β-galactosidase activity assay (Example 3)
Assay type: cell-based
Conditions: No Addition
ATTRIBUTE MEASURED: Peptide Interactions with ER Alpha, beta-galactosidase units, value (MOD/min/mg)

P. SSPGSREWFKDMLSR [α/β V]
Q. GHEPLTLLERLLMDDKQAV [Peptide F6]
Kindly identify which of P and Q has the larger recorded Peptide Interactions with ER Alpha, beta-galactosidase units, value value. Refer to your chosen item by its label in the answer.
Q
(Q: 30983 MOD/min/mg, P: 548 MOD/min/mg)

I. SSWDMHQFFWEGVSR [α/β III]
II. SSLTSRDFGSWYASR [α II]
Higher Peptide Interactions with ER Alpha, beta-galactosidase units, value between I and II ? Give the chosen item's label as your response.
II
(II: 1224 MOD/min/mg, I: 381 MOD/min/mg)
